Test system: SW-480
assay_protocol: MTT assay
Type: cell-based, human
run_parameters: Homo sapiens, SW480, 72 h
Entries and their measured pIC50 follow.
Reminder that pIC50 means the negative base-10 logarithm of the concentration expressed in mol/L.

Record excerpt, results attached:
c1ccc(SSc2ccccc2)cc1 [Compound 5, diphenyl disulfide]
4.51
COc1ccc(SSc2ccc(OC)c(OC)c2)cc1OC [Compound 3, bis(3,4-dimethoxyphenyl) disulfide]
4.66
COc1cccc2c1C(=O)c1c(O)c3c(c(O)c1C2=O)C[C@@](O)(C(=O)CO)C[C@@H]3O[C@H]1C[C@H](N)[C@H](O)[C@H](C)O1 [doxorubicine, doxorubicin, reference compound]
6.35

Asked: Provide measured pIC50 value, entry: COc1ccccc1SSc1ccccc1OC [Compound 2, bis(2-methoxyphenyl) disulfide]
Given back: 4.65

Asked: Provide measured pIC50 value, entry: Oc1ccc(SSc2ccc(O)cc2)cc1 [Compound 4, 4,4′-dihydroxydiphenyl disulfide]
Given back: 4.40

Asked: Provide measured pIC50 value, entry: c1ccc(SSSc2ccccc2)cc1 [Compound 1, diphenyl trisulfide]
Given back: 4.62
